B1: Protein piccolo, residues 1058 to 1114; numbered along this chain, Q9Y6V0 (parent)
chain: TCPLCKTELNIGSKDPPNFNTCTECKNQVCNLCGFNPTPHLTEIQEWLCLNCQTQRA

- Variants of: B1
- TEST_PROTOCOL: abundance fitness (aPCA) (normalised: wild type 0, dead -1); higher = more abundant; growth selection in yeast, the domain comes from the species named
- TEST_PARAMETERS: Homo sapiens
Lab note: anything with abundance fitness at or over -0.2 counts as class 1; the rest go in class 0.

* TCPLCKTELNIGSWDPPNFNTCTECKNQVCNLCGFNPTPHLTEIQEWLCLNCQTQRA | class 0
* TCPWCKTELNIGSKDPPNFNTCTECKNQVCNLCGFNPTPHLTEIQEWLCLNCQTQRA | class 0
* TCPLCKTELNINSKDPPNFNTCTECKNQVCNLCGFNPTPHLTEIQEWLCLNCQTQRA | class 0
* TCPLCKTELNILSKDPPNFNTCTECKNQVCNLCGFNPTPHLTEIQEWLCLNCQTQRA | class 1
* TCPLCKTELNIGSKDPPNFNTCTECKNQVCNLCGFNPTPHLTEIQEWLNLNCQTQRA | class 0
* TCPLCKMELNIGSKDPPNFNTCTECKNQVCNLCGFNPTPHLTEIQEWLCLNCQTQRA | class 0
* TCPLCKTELNIGSKWPPNFNTCTECKNQVCNLCGFNPTPHLTEIQEWLCLNCQTQRA | class 0
* TCPLCKTELNIGSKDPPNFNTCTECKNQVCHLCGFNPTPHLTEIQEWLCLNCQTQRA | class 1
* TCPFCKTELNIGSKDPPNFNTCTECKNQVCNLCGFNPTPHLTEIQEWLCLNCQTQRA | class 0
* TCPLCKTELNIGSKDPPNFNTCTECMNQVCNLCGFNPTPHLTEIQEWLCLNCQTQRA | class 1
* TCPLCKTELFIGSKDPPNFNTCTECKNQVCNLCGFNPTPHLTEIQEWLCLNCQTQRA | class 1
* TCPLCKTELNIGSKDPPNFNSCTECKNQVCNLCGFNPTPHLTEIQEWLCLNCQTQRA | class 1
* TCPLCKTEDNIGSKDPPNFNTCTECKNQVCNLCGFNPTPHLTEIQEWLCLNCQTQRA | class 1
* TCPLCKTELNIGSKDPPNFNTCTECKNQVCNLCGFNPTPHLTEIQEWLCLNCLTQRA | class 0
* TCPLCKTELNIGSKDEPNFNTCTECKNQVCNLCGFNPTPHLTEIQEWLCLNCQTQRA | class 1
* TCPLCKTELRIGSKDPPNFNTCTECKNQVCNLCGFNPTPHLTEIQEWLCLNCQTQRA | class 0
* TCPLCKTELNIGSKDPPNFNTCTECKNQVCNPCGFNPTPHLTEIQEWLCLNCQTQRA | class 1
* TCPLCKTELNIGKKDPPNFNTCTECKNQVCNLCGFNPTPHLTEIQEWLCLNCQTQRA | class 1
* TCPLCKTELNIGSKDPPNFNTCTECKNQVCNLCGFNPTPHLTEMQEWLCLNCQTQRA | class 0
* TCPLCKTELNIGSKDPPNFNTCTECKNQVINLCGFNPTPHLTEIQEWLCLNCQTQRA | class 0
* TCPLCKTELNIGSKDPPNFNTCTECKNEVCNLCGFNPTPHLTEIQEWLCLNCQTQRA | class 1
* TCPLCKTEHNIGSKDPPNFNTCTECKNQVCNLCGFNPTPHLTEIQEWLCLNCQTQRA | class 0
